meta.source: ChEMBL document CHEMBL5154699

assayTarget: Mu-type opioid receptor (Cavia porcellus, UniProt P97266)
assayRemarks: Displacement of [3H]-DAMGO from MOR in guinea pig brain membranes measured by competitive radioligand receptor binding assay
Type: cell membranes, Membrane
pKi: −log10 of the molar value.
readoutKind: pKi

* CN(C)[C@@H]1C[C@@H]2CCN(C(=O)Cc3ccc(Cl)c(Cl)c3)[C@H]1C2 | < 6.00

* * *

assayTarget: Delta-type opioid receptor (Rattus norvegicus, UniProt P33533)
assayRemarks: Displacement of [3H]-DPDPE from DOR in rat brain membranes measured by competitive radioligand receptor binding assay
readoutKind: Ki (nM)

* O=C(Cc1ccc(Cl)c(Cl)c1)N1CC[C@H]2C[C@@H](N3CCCC3)[C@@H]1C2 | 542

* * *

assayTarget: Sigma non-opioid intracellular receptor 1 (Cavia porcellus)
assayRemarks: Displacement of [3H]-(+)-pentazocine from sigma1 receptor in guinea pig brain membrane measured by competitive radioligand receptor binding assay
# key: entry, value: Ki
readoutKind: Ki

• CN(C)[C@H]1C[C@H]2CCN(C(=O)Cc3ccc(Cl)c(Cl)c3)[C@@H]1C2 = 0.017 µM
• O=C(Cc1ccc(Cl)c(Cl)c1)N1CC[C@H]2C[C@@H](N3CCCC3)[C@@H]1C2 = 0.056 µM
• O=C(Cc1ccc(Cl)c(Cl)c1)N1CC[C@H]2C[C@@H]1[C@@H](N1CCCC1)C2 = 0.01 µM
• CN(C)[C@@H]1C[C@@H]2CCN(C(=O)Cc3ccc(Cl)c(Cl)c3)[C@H]1C2 = 0.292 µM

* * *

assayTarget: Sigma intracellular receptor 2 (Rattus norvegicus)
assayRemarks: Displacement of [3H]-di-o-tolylguanidine from sigma2 receptor in rat liver membrane measured by competitive radioligand receptor binding assay
pKi: −log10 of the molar value.
readoutKind: pKi

• O=C(Cc1ccc(Cl)c(Cl)c1)N1CC[C@H]2CC[C@@H](N3CCCC3)[C@@H]1C2 = 6.81
• CN(C)[C@H]1C[C@H]2CCN(C(=O)Cc3ccc(Cl)c(Cl)c3)[C@@H]1C2 = 6.67
• CN(C)[C@@H]1CCC2CCN(C(=O)Cc3ccc(Cl)c(Cl)c3)C1C2 (mixture of isomers) = 6.22
• O=C(Cc1ccc(Cl)c(Cl)c1)N1CC[C@H]2C[C@@H]1[C@@H](N1CCCC1)C2 = 6.77
• O=C(Cc1ccc(Cl)c(Cl)c1)N1CC[C@H]2C[C@@H](N3CCCC3)[C@@H]1C2 = 6.27
• O=C(Cc1ccc(Cl)c(Cl)c1)N1CC[C@@H]2CC[C@H](N3CCCC3)[C@H]1C2 = 6.31
• CN(C)[C@@H]1C[C@@H]2CCN(C(=O)Cc3ccc(Cl)c(Cl)c3)[C@H]1C2 = 6.09

* * *

assayTarget: Kappa-type opioid receptor (Cavia porcellus, UniProt P41144)
# key: entry, value: log10 of Ki
readoutKind: log10 of Ki (log10 of the value in nM)

• O=C(Cc1ccc(Cl)c(Cl)c1)N1CC[C@H]2C[C@@H]1[C@@H](N1CCCC1)C2 = 3.24
• O=C(Cc1ccc(Cl)c(Cl)c1)N1CC[C@H]2C[C@@H](N3CCCC3)[C@@H]1C2 = 0.85
• O=C(Cc1ccc(Cl)c(Cl)c1)N1CCC2CC1[C@H](N1CCCC1)C2 (stereo not given in full) = 0.85
• O=C(Cc1ccc(Cl)c(Cl)c1)N1CCC2CC1[C@@H](N1CCCC1)C2 (stereo not given in full) = 2.94
• O=C(Cc1ccc(Cl)c(Cl)c1)N1CCN2CC[C@@H](N3CCCC3)C1C2 (stereo not given in full) = 1.86
• COC(=O)N1CCN(C(=O)Cc2ccc(Cl)c(Cl)c2)[C@H](CN2CCCC2)C1 = -0.34
• CN(C)[C@H]1C[C@H]2CCN(C(=O)Cc3ccc(Cl)c(Cl)c3)[C@@H]1C2 = 2.73
• O=C(Cc1ccc(Cl)c(Cl)c1)N1CCCCC1CN1CCCC1 (stereo not given) = -0.62
• CN(C)[C@@H]1C[C@@H]2CCN(C(=O)Cc3ccc(Cl)c(Cl)c3)[C@H]1C2 = 1.11
